Entry source: paper PMC5755735

# target of assay: human A3 receptors expressed in CHO cells (Homo sapiens)
# Sequence (P0DMS8 1-318): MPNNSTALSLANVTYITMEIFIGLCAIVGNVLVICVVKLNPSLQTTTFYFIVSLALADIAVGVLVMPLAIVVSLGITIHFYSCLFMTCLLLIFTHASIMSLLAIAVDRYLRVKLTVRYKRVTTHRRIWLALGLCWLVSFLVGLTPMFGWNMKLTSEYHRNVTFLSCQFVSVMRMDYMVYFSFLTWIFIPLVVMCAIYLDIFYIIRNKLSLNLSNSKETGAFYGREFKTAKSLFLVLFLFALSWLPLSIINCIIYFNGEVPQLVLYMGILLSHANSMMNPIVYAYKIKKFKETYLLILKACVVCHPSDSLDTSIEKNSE
Each item that follows carries a reported Ki.

INSERT INTO measurements (compound, measured_result) VALUES
  ('Cc1cc(C)nc(N2CCN(C(=O)Cc3c[nH]c4cc(F)ccc34)CC2)n1 [Compound 19]', '> 30 µM'),
  ('Cc1cc(C)nc(N2CCN(C(=O)c3c[nH]c4ccc(Cl)cc34)CC2)n1 [Compound 16]', '19.5 µM'),
  ('COc1cccc2[nH]cc(C(=O)N3CCN(c4nc(C)cc(C)n4)CC3)c12 [Compound 13]', '> 30 µM'),
  ('Cc1cc(C)nc(N2CCN(CCc3c(C)[nH]c4ccccc34)CC2)n1 [Compound 10]', '39.8 µM'),
  ('Cc1cc(C)nc(N2CCN(C(=O)Cc3c(C)[nH]c4ccccc34)CC2)n1 [Compound 6]', '> 100 µM'),
  ('COc1ccc2[nH]c(C(=O)N3CCN(c4nc(C)cc(C)n4)CC3)cc2c1 [Compound 24]', '> 30 µM'),
  ('Cc1cc(C)nc(N2CCN(C(=O)c3cc4cccc([N+](=O)[O-])c4[nH]3)CC2)n1 [Compound 25]', '> 30 µM'),
  ('Cc1cc(C)nc(N2CCN(C(=O)c3c[nH]c4ccccc34)CC2)n1 [Compound 5]', '> 100 µM');

Let us examine a further case.
Request: Dear colleague, I am looking for the recorded Ki of the following compound: COc1ccc2[nH]cc(C(=O)N3CCN(c4nc(C)cc(C)n4)CC3)c2c1 [Compound 14]
Response: > 30 µM
